From: ChEMBL document CHEMBL4184286

biological target: Sodium channel protein type 9 subunit alpha (Homo sapiens, UniProt Q15858); experiment: Antagonist activity at recombinant human Nav1.7 expressed in HEK293 cells assessed as reduction in channel current at -60 mV holding potential after 600 secs by barracuda automated electrophysiology method; format: cell-based
Sequence (Q15858 whole entry): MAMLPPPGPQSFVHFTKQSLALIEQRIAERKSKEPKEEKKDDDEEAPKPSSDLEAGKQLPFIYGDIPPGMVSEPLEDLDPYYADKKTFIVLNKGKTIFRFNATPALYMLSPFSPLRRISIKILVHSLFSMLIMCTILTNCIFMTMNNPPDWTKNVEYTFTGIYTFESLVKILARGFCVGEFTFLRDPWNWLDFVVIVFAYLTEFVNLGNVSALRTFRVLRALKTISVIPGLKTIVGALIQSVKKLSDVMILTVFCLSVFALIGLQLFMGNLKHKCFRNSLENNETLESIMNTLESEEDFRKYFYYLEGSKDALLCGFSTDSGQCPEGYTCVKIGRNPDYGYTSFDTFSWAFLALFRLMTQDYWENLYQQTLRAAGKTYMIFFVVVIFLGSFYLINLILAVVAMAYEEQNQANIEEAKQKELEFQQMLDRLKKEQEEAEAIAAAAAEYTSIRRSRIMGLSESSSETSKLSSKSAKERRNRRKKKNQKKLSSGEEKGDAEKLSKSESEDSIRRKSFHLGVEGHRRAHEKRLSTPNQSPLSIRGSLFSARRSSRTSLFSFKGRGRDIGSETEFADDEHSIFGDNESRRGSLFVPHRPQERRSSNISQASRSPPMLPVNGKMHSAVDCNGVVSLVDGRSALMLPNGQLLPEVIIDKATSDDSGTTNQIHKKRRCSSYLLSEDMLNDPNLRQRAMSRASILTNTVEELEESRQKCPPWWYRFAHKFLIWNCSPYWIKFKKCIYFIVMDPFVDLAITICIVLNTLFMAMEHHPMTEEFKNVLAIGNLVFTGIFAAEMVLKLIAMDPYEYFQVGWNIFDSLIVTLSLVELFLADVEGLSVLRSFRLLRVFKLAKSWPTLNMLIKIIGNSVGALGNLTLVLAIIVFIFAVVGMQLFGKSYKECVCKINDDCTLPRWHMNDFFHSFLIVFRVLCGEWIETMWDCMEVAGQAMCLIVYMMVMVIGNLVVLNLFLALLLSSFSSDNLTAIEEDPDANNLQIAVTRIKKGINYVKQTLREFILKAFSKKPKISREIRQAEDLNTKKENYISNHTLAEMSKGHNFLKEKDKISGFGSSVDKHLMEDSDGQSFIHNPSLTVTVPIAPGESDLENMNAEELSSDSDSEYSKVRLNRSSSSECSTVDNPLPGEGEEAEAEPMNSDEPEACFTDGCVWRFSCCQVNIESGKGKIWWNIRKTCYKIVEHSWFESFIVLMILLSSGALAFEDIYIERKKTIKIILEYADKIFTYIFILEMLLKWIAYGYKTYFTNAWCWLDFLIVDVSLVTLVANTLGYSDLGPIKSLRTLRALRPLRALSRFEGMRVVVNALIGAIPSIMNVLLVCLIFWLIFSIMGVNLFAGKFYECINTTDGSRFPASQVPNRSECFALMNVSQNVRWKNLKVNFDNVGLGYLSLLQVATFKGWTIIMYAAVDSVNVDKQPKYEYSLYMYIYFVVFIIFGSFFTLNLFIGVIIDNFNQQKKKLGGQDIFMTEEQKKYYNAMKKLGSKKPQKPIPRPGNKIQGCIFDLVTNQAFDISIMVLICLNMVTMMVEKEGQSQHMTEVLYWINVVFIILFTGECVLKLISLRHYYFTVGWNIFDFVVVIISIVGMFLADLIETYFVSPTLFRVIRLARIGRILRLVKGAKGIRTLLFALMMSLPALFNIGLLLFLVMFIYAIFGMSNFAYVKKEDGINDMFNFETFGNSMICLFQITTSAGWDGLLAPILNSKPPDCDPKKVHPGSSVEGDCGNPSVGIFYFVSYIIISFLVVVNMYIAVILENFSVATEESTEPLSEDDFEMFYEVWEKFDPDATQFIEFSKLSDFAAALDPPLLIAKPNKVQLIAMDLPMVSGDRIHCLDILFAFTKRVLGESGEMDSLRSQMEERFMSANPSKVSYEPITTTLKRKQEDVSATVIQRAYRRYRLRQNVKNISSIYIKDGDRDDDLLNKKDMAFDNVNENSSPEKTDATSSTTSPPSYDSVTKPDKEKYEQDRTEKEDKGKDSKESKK
This listing pairs compounds with measured pIC50.
Field pIC50 (float): negative decimal logarithm of the concentration in molar.

                                   compound                             system_tested  recorded_result
0  O=S(=O)(Nc1ncns1)c1cc(F)c(OC2OCCNC2c2cccc(C(F)(F)F)c2)cc1F (single isomer, unassigned; isomer A)  Sodium channel protein type 9 subunit alpha (Homo sapiens, UniProt Q15858)             6.51
1  N#Cc1cccc(C2NCCOC2Oc2cc(F)c(S(=O)(=O)Nc3ncns3)cc2F)c1 (single isomer, unassigned; isomer B)  Sodium channel protein type 9 subunit alpha (Homo sapiens, UniProt Q15858)             4.96
2  Cn1nccc1C1NCCOC1Oc1cc(F)c(S(=O)(=O)Nc2ncns2)cc1F (stereo in doubt; 55)  Sodium channel protein type 9 subunit alpha (Homo sapiens, UniProt Q15858)             5.74

Would you kindly share the measured pIC50 for O=S(=O)(Nc1ncns1)c1cc(F)c(OC2OCCNC2c2ccc(C(F)(F)F)cc2)cc1F (single isomer, unassigned; isomer A) ?
6.41

For the compound Cn1nc(C(F)(F)F)cc1C1NCCOC1Oc1cc(F)c(S(=O)(=O)Nc2ncns2)cc1F (single isomer, unassigned; isomer B) , what pIC50 is on record?
5.35

Tell me the measured pIC50 of CC1(C)CNC(c2cc(Cl)cc(Cl)c2)C(Oc2cc(F)c(S(=O)(=O)Nc3ncns3)cc2F)O1 (single isomer, unassigned; isomer B) , please.
6.35

What pIC50 value was documented for this compound, O=S(=O)(Nc1ncns1)c1cc(F)c(OC2OCCNC2c2cccc3nccnc23)cc1F (single isomer, unassigned; isomer B) ?
5.20

* * *

molecular target: Sodium channel protein type 5 subunit alpha (Homo sapiens, UniProt Q14524); test: Antagonist activity at recombinant human Nav1.5 expressed in HEK293 cells assessed as reduction in channel current at -50 mV holding potential after 600 secs by barracuda automated electrophysiology method; format: ADME, cell-based
Sequence (Q14524 whole entry): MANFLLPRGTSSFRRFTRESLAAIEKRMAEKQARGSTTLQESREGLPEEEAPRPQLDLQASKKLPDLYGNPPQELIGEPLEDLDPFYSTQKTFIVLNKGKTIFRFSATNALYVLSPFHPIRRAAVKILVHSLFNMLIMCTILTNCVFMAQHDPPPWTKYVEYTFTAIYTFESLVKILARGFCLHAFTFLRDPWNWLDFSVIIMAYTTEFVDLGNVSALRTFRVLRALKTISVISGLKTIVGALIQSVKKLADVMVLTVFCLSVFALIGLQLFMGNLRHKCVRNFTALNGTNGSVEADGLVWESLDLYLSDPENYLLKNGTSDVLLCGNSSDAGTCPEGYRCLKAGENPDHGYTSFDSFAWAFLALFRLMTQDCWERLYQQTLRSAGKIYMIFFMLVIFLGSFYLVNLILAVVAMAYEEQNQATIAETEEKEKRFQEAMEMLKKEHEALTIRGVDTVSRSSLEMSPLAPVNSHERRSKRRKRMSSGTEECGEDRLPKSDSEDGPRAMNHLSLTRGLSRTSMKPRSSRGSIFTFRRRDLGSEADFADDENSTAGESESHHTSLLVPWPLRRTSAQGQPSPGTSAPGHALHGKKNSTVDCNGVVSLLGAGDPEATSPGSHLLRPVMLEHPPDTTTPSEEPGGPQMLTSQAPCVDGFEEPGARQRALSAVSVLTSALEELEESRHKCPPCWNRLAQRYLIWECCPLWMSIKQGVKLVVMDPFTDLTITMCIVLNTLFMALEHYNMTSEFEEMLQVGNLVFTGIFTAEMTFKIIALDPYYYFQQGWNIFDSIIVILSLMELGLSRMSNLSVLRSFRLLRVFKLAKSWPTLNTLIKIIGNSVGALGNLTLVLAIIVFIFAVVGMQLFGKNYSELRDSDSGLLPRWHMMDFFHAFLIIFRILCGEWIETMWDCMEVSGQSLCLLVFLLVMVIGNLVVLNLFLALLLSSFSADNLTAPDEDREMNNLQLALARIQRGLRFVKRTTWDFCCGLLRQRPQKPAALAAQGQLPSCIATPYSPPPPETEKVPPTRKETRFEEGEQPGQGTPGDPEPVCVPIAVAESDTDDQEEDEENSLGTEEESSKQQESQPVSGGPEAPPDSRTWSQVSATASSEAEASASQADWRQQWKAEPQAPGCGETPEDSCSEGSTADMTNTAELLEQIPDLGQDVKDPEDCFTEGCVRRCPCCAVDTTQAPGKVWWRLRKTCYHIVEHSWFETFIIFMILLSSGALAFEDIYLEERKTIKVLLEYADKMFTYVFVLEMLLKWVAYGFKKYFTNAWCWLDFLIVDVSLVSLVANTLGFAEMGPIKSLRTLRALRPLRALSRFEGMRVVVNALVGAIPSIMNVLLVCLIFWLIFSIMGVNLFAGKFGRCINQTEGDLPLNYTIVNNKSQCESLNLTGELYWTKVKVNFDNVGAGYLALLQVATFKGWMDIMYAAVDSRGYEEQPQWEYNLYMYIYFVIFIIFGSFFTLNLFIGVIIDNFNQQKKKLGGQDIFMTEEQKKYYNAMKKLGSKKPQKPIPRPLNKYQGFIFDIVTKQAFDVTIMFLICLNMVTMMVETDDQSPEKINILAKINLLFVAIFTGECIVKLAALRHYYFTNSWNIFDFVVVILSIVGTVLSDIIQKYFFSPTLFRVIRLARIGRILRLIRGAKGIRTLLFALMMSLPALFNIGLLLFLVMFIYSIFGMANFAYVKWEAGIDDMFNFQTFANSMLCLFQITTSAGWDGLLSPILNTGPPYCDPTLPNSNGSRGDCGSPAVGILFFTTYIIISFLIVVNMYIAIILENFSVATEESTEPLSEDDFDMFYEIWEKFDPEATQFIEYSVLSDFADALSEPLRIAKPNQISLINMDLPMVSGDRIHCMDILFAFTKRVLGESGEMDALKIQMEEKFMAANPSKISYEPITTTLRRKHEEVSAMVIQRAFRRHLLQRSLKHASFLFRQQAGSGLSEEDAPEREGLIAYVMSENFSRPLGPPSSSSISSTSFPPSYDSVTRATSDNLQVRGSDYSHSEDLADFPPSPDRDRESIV
Readings of IC50 for the listed molecules

Example cases with answers are listed next.
>>> print(df.to_string())
                                   molecule  recorded_result
0  O=S(=O)(Nc1ncns1)c1cc(F)c(OC2OCCNC2c2ccc3cnccc3c2)cc1F (single isomer, unassigned; isomer B)          > 30 µM
1  O=S(=O)(Nc1ncns1)c1cc(F)c(OC2OCCNC2c2ccc(Cl)nc2)cc1F (single isomer, unassigned; isomer B)          > 30 µM
2  O=S(=O)(Nc1ncns1)c1cc(F)c(OC2OCCNC2c2cccc(C(F)(F)F)c2)cc1F (single isomer, unassigned; isomer A)          0.58 µM

Write down the reported IC50 of O=S(=O)(Nc1ncns1)c1cc(F)c(OC2OCCNC2c2ccc(C(F)(F)F)cc2)cc1F (single isomer, unassigned; isomer A) , test system: Sodium channel protein type 5 subunit alpha (Homo sapiens, UniProt Q14524).
> 30 µM

Recall the recorded IC50 for COc1ccc(C2NCCOC2Oc2cc(F)c(S(=O)(=O)Nc3ncns3)cc2F)cc1 (single isomer, unassigned; isomer A) with Sodium channel protein type 5 subunit alpha (Homo sapiens, UniProt Q14524) and state it.
> 30 µM

Form: Entry = COc1cccc(C2NCCOC2Oc2cc(F)c(S(=O)(=O)Nc3ncns3)cc2F)c1 (single isomer, unassigned; isomer A) | System = Sodium channel protein type 5 subunit alpha (Homo sapiens, UniProt Q14524) | IC50 = ____
> 30 µM

# value lookup — system Sodium channel protein type 5 subunit alpha (Homo sapiens, UniProt Q14524), readout IC50, item N#Cc1cccc(C2NCCOC2Oc2cc(F)c(S(=O)(=O)Nc3ncns3)cc2F)c1 (single isomer, unassigned; isomer A)
> 30 µM

Enter reported IC50 observed with Sodium channel protein type 5 subunit alpha (Homo sapiens, UniProt Q14524) for CN(C)c1noc2ccc(C3NCCOC3Oc3cc(F)c(S(=O)(=O)Nc4ncns4)cc3F)cc12 (single isomer, unassigned; isomer B)
5 µM

# value lookup — system Sodium channel protein type 5 subunit alpha (Homo sapiens, UniProt Q14524), readout IC50, item O=S(=O)(Nc1ncns1)c1cc(F)c(OC2OCCNC2c2cccc(C(F)(F)F)c2)cc1F (single isomer, unassigned; isomer B)
4.8 µM

Query IC50 on Sodium channel protein type 5 subunit alpha (Homo sapiens, UniProt Q14524) for O=S(=O)(Nc1ncns1)c1cc(F)c(OC2OCCNC2c2ccc(Cl)cc2Cl)cc1F (single isomer, unassigned; isomer A)
1.7 µM

Find the measured IC50: item COc1ccccc1C1NCCOC1Oc1cc(F)c(S(=O)(=O)Nc2ncns2)cc1F (single isomer, unassigned; isomer A) , target or system Sodium channel protein type 5 subunit alpha (Homo sapiens, UniProt Q14524).
> 30 µM

Query for Sodium channel protein type 5 subunit alpha (Homo sapiens, UniProt Q14524): what IC50 does the record show for N#Cc1ccc(C2NCCOC2Oc2cc(F)c(S(=O)(=O)Nc3ncns3)cc2F)cc1 (single isomer, unassigned; isomer A) ?
> 30 µM

Request - read-out IC50 | tested on Sodium channel protein type 5 subunit alpha (Homo sapiens, UniProt Q14524) | molecule O=S(=O)(Nc1ncns1)c1cc(F)c(OC2OCCNC2c2ccc3c(c2)OCO3)cc1F (single isomer, unassigned; isomer B)
> 30 µM

Tell me reported IC50 for O=S(=O)(Nc1ncns1)c1cc(F)c(OC2OCCNC2c2ccc(Cl)c(Cl)c2)cc1F (single isomer, unassigned; isomer A) , tested with Sodium channel protein type 5 subunit alpha (Homo sapiens, UniProt Q14524).
1 µM

What IC50 appears in the records for this molecule with Sodium channel protein type 5 subunit alpha (Homo sapiens, UniProt Q14524)? `CC1(C)CN[C@H](c2cc(Cl)cc(Cl)c2)[C@@H](Oc2cc(F)c(S(=O)(=O)Nc3ncns3)cc2F)O1`
6 µM

Field: IC50 (Sodium channel protein type 5 subunit alpha (Homo sapiens, UniProt Q14524)). Entry: O=S(=O)(Nc1ncns1)c1cc(F)c(OC2OCCNC2c2cc(Cl)cc(Cl)c2)cc1F (single isomer, unassigned; isomer B)
5.6 µM
